The reader will find reported IC50 values listed item by item below.
Target: Aromatase (Homo sapiens)
Sequence (P11511 whole entry): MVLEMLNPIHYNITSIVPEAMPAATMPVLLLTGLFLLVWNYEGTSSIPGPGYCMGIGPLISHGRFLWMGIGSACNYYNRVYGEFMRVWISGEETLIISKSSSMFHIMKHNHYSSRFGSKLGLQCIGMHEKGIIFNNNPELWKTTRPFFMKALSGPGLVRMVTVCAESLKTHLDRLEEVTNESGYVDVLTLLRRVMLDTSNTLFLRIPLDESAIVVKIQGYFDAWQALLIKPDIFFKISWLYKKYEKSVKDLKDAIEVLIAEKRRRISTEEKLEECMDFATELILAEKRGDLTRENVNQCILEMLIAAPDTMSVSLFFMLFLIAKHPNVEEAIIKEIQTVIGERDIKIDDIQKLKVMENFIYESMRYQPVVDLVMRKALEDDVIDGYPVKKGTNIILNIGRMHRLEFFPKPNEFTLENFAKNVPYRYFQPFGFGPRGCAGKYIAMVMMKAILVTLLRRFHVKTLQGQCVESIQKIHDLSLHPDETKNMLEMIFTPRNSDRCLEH

C[C@]12CCC3C(CCC4=CCCC[C@@]43CO)C1CCC2=O (some centres not stated)	49 nM
CC(=O)O[C@@H]1CCC[C@@]2(CO)C1=CCC1C2CC[C@]2(C)C(=O)CCC12 (some centres not stated)	11000 nM
C[C@]12CCCCC1=CCC1C2CC[C@]2(C)C(=O)CCC12 (some centres not stated)	660 nM
C[C@]12CCC3C(CC=C4CCCC[C@@]43CO)C1CCC2=O (some centres not stated)	6900 nM

stdin: What value of IC50 on Aromatase (Homo sapiens) does C[C@]12CCC3C(C[C@H](O)C4=CCCC[C@@]43CO)C1CCC2=O (some centres not stated) have?
stdout: 1400 nM

stdin: What about CO[C@H]1CCC[C@@]2(CO)C1=CCC1C2CC[C@]2(C)C(=O)CCC12 (some centres not stated) ?
stdout: 150000 nM

stdin: What about C[C@]12CCC3C(C[C@@H](O)C4=CCCC[C@@]43CO)C1CCC2=O (stereo partly drawn) [6beta,19-dihydroxyandrost-4-en-17-one] ?
stdout: 940 nM

----------
Target: Aromatase (Homo sapiens)
Sequence (P11511 whole entry): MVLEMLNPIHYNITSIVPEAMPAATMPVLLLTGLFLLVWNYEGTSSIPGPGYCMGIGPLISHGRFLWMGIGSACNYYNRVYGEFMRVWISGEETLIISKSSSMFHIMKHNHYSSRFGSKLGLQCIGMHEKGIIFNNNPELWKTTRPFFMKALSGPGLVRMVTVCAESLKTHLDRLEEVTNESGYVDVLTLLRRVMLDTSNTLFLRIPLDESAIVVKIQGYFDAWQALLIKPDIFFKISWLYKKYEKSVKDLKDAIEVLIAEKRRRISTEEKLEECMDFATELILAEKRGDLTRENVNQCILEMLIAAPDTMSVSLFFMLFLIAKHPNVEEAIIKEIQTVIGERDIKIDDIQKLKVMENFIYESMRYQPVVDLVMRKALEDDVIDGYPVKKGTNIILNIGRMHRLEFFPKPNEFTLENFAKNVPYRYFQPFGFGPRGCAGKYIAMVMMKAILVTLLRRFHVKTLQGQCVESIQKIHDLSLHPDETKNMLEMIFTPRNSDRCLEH
PROPERTY NAME: pKi
Answer as the number alone; pKi is minus log10 of concentration in mol/L.

Solved entries:
C[C@]12CCC3C(C[C@@H](O)C4=CCCC[C@@]43CO)C1CCC2=O (stereo partly drawn) [6beta,19-dihydroxyandrost-4-en-17-one]	6.96
C[C@]12CCC3C(C[C@H](O)C4=CCCC[C@@]43CO)C1CCC2=O (stereo not given in full)	6.60
C[C@]12CCC3C(CCC4=CCCC[C@@]43CO)C1CCC2=O (stereo not given in full)	8.24
C[C@]12CCCCC1=CCC1C2CC[C@]2(C)C(=O)CCC12 (stereo not given in full)	6.92

Now turn to the next molecule.
stdin: What measured pKi goes with C[C@]12CCC3C(CC=C4CCCC[C@@]43CO)C1CCC2=O (stereo not given in full) ?
stdout: 6.00
